B1: RHOBTB3 (parent)
chain: KVVEAHKIVLCAVSHVFMLLFNVK

variants of: B1; assay: protein stability index of a GFP-peptide fusion (GPS, HEK-293T) (PSI 1-6); higher = more stable; conditions: c terminus: a fixed tail appended;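 note: lentivirally expressed fusions sorted by FACS into six bins by GFP to DsRed ratio, PSI derived from sequencing read proportions per bin multiplied by bin number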
Mark Condition met for reported protein stability index of 3 or greater; mark Condition not met for anything smaller.

-- ask Hi team, for V13T , is the recorded protein stability index at or above 3?
-- reply Condition met

-- ask Please answer likewise for V9R
-- reply Condition met

-- ask Please answer likewise for S14Y
-- reply Condition not met

-- ask Please answer likewise for V3S
-- reply Condition not met

-- ask Please answer likewise for V16P
-- reply Condition met

-- ask Please answer likewise for H6I
-- reply Condition not met

-- ask Please answer likewise for F17W
-- reply Condition not met

-- ask Please answer likewise for I8A
-- reply Condition not met

-- ask Please answer likewise for L20G
-- reply Condition not met

-- ask Please answer likewise for V2C
-- reply Condition not met

-- ask Please answer likewise for A5Y
-- reply Condition met

-- ask Please answer likewise for N22Q
-- reply Condition not met

-- ask Please answer likewise for V23P
-- reply Condition not met

-- ask Please answer likewise for F17Q
-- reply Condition not met

-- ask Please answer likewise for V3G
-- reply Condition not met

-- ask Please answer likewise for H6A
-- reply Condition not met

-- ask Please answer likewise for I8W
-- reply Condition met

-- ask Please answer likewise for C11A
-- reply Condition not met

-- ask Please answer likewise for V13W
-- reply Condition not met

-- ask Please answer likewise for H15P
-- reply Condition not met

-- ask Please answer likewise for M18P
-- reply Condition not met

-- ask Please answer likewise for K1Q
-- reply Condition not met
